# Lookup of reported CC50 keyed by entry
Tested on: TZM
Assay overview: Cytotoxicity against in human TZM-bl cells assessed as reduction in cell viability measured after 2 days by CytoTox-Glo cytotoxicity assay
Protocol conditions: 48 h

Compound string | CC50
COc1ccc(C(=O)Nc2ccccc2-c2cn(CC(=O)N[C@@H](Cc3ccccc3)C(=O)N(C)c3ccc(OC)cc3)nn2)cc1 | > 16.2 µM
COc1ccc(N(C)C(=O)[C@H](Cc2ccccc2)NC(=O)Cn2cc(-c3ccc(NC(C)=O)cc3)nn2)cc1 | > 19 µM
COc1ccc(N(C)C(=O)[C@H](Cc2ccccc2)NC(=O)Cn2cc(-c3cccc(NC(=O)c4ccc(C#N)cc4)c3)nn2)cc1 | > 16.3 µM
COc1ccc(N(C)C(=O)[C@H](Cc2ccccc2)NC(=O)Cn2cc(-c3ccccc3NC(=O)c3ccccc3F)nn2)cc1 | > 16.5 µM
COc1ccc(N(C)C(=O)[C@H](Cc2ccccc2)NC(=O)Cn2cc(-c3ccc(NC(=O)c4ccc(-c5ccccc5)cc4)cc3)nn2)cc1 | > 15 µM
Cc1[nH]c2ccccc2c1CC(=O)N[C@@H](Cc1ccccc1)C(=O)N(C)c1ccccc1 | > 23.5 µM
COC(=O)c1ccc(C(=O)Nc2cccc(-c3cn(CC(=O)N[C@@H](Cc4ccccc4)C(=O)N(C)c4ccc(OC)cc4)nn3)c2)cc1 | > 15.5 µM
COc1ccc(N(C)C(=O)[C@H](Cc2ccccc2)NC(=O)Cn2cc(-c3ccc(NC(=O)c4ccccc4OC)cc3)nn2)cc1 | > 16.2 µM
COc1ccc(N(C)C(=O)[C@H](Cc2ccccc2)NC(=O)Cn2cc(-c3ccccc3N)nn2)cc1 | > 20.6 µM
COc1ccc(N(C)C(=O)[C@H](Cc2ccccc2)NC(=O)Cn2cc(-c3ccc(NC(=O)c4ccccc4)cc3)nn2)cc1 | > 17 µM
COc1ccc(C(=O)Nc2ccc(-c3cn(CC(=O)N[C@@H](Cc4ccccc4)C(=O)N(C)c4ccc(OC)cc4)nn3)cc2)cc1 | > 16.2 µM
COc1ccc(N(C)C(=O)[C@H](Cc2ccccc2)NC(=O)Cn2cc(-c3ccccc3NC(=O)c3ccc(-c4ccccc4)cc3)nn2)cc1 | > 15 µM
COc1ccc(N(C)C(=O)[C@H](Cc2ccccc2)NC(=O)Cn2cc(-c3cccc(NC(C)=O)c3)nn2)cc1 | > 19 µM
COc1ccc(N(C)C(=O)[C@H](Cc2ccccc2)NC(=O)Cn2cc(-c3cccc(NC(=O)c4ccccc4)c3)nn2)cc1 | > 17 µM
COc1ccc(N(C)C(=O)[C@H](Cc2ccccc2)NC(=O)Cn2cc(-c3cccc(NC(=O)c4ccccc4OC)c3)nn2)cc1 | > 16.2 µM
COc1ccc(N(C)C(=O)[C@H](Cc2ccccc2)NC(=O)Cn2cc(-c3ccc(NC(=O)c4ccc(C)cc4)cc3)nn2)cc1 | > 16.6 µM
COc1ccc(N(C)C(=O)[C@H](Cc2ccccc2)NC(=O)Cn2cc(-c3ccccc3NC(=O)c3ccc(F)cc3)nn2)cc1 | > 16.5 µM
COc1ccc(N(C)C(=O)[C@H](Cc2ccccc2)NC(=O)Cn2cc(-c3ccccc3NC(=O)c3ccccc3OC)nn2)cc1 | > 16.2 µM
COc1ccc(N(C)C(=O)[C@H](Cc2ccccc2)NC(=O)Cn2cc(-c3ccccc3NC(=O)c3cccc(OC)c3)nn2)cc1 | > 16.2 µM
COc1ccc(N(C)C(=O)[C@H](Cc2ccccc2)NC(=O)Cn2cc(-c3cccc(NC(=O)c4ccc(-c5ccccc5)cc4)c3)nn2)cc1 | > 15 µM
COc1ccc(N(C)C(=O)[C@H](Cc2ccccc2)NC(=O)Cn2cc(-c3ccccc3NC(=O)c3ccccc3)nn2)cc1 | > 17 µM
COc1ccc(N(C)C(=O)[C@H](Cc2ccccc2)NC(=O)Cn2cc(-c3ccccc3NC(=O)c3ccc(C#N)cc3)nn2)cc1 | > 16.3 µM
COc1ccc(N(C)C(=O)[C@H](Cc2ccccc2)NC(=O)Cn2cc(-c3ccc(NC(=O)c4ccc(F)cc4)cc3)nn2)cc1 | > 16.5 µM
COc1ccc(N(C)C(=O)[C@H](Cc2ccccc2)NC(=O)Cn2cc(-c3ccc(NC(=O)c4ccc(C#N)cc4)cc3)nn2)cc1 | > 16.3 µM
COc1ccc(N(C)C(=O)[C@H](Cc2ccccc2)NC(=O)Cn2cc(-c3ccc(NC(=O)c4ccccc4F)cc3)nn2)cc1 | > 16.5 µM
COC(=O)c1ccc(C(=O)Nc2ccccc2-c2cn(CC(=O)N[C@@H](Cc3ccccc3)C(=O)N(C)c3ccc(OC)cc3)nn2)cc1 | > 15.5 µM
COc1ccc(N(C)C(=O)[C@H](Cc2ccccc2)NC(=O)Cn2cc(-c3ccccc3NC(C)=O)nn2)cc1 | > 19 µM
COc1ccc(N(C)C(=O)[C@H](Cc2ccccc2)NC(=O)Cn2cc(-c3cccc(NC(=O)c4ccccc4F)c3)nn2)cc1 | > 16.5 µM
COc1ccc(N(C)C(=O)[C@H](Cc2ccccc2)NC(=O)Cn2cc(-c3ccccc3NC(=O)c3ccc(C)cc3)nn2)cc1 | > 16.6 µM

Cited source: ChEMBL document CHEMBL4765266
